Origin of the recorded values: paper PMC8380212

# Tested on: HT-1080-FAP xenografts
# method.notes: Small animal PET imaging
# Assay type: in vivo, BALB/c nu/nu mice
# settings: HT1080-FAP transplanted nude mice, 120 min
API: label(entry) gives 1 (yes) if the entry's Tumor Uptake (SUVmean) 120 min is strictly smaller than 0.3; on equality or larger values it gives 0 (no).

line_notation=N#C[C@@H]1CCCN1C(=O)CNC(=O)c1ccnc2ccc(OCCCN3CCN(C(=O)CN4CCN(CC(=O)O)CCN(CC(=O)O)CC4)CC3)cc12 class_label="0 (no)"
line_notation=CN(CCCN1CCN(C(=O)CN2CCN(CC(=O)O)CCN(CC(=O)O)CC2)CC1)c1ccc2nccc(C(=O)NCC(=O)N3CC(F)(F)C[C@H]3C#N)c2c1 class_label="1 (yes)"
line_notation=CN(CCCN1CCN(C(=O)c2ccc([N+](C)(C)C)nc2)CC1)c1ccc2nccc(C(=O)NCC(=O)N3CC(F)(F)C[C@H]3C#N)c2c1 class_label="1 (yes)"
line_notation=N#C[C@@H]1CC(F)(F)CN1C(=O)CNC(=O)c1ccnc2ccc(OCCCN3CCN(C(=O)CN4CCN(CC(=O)O)CCN(CC(=O)O)CC4)CC3)cc12 class_label="0 (no)"
line_notation=C[N+](C)(C)c1ccc(C(=O)N2CCN(CCCOc3ccc4nccc(C(=O)NCC(=O)N5CC(F)(F)C[C@H]5C#N)c4c3)CC2)cn1 class_label="0 (no)"

Moving on to the next molecule.
Q) Regarding `N#C[C@@H]1CC(F)(F)CN1C(=O)CNC(=O)c1ccnc2ccc(OCCCN3CCN(C(=O)[C@H](CC(C(=O)O)C(=O)O)NC(=O)CN4CCN(CC(=O)O)CCN(CC(=O)O)CC4)CC3)cc12` , kindly confirm whether its Tumor Uptake (SUVmean) 120 min is beneath 0.3.
A) 0 (no)

====

# test.system: FAP‐transfected HT‐1080‐FAP cells (Homo sapiens, UniProt Q12884)
# Construct: expressed in transfected cells; host or cells: HT-1080 cells transfected with FAP (HT-1080-FAP)
# Sequence (Q12884 whole entry): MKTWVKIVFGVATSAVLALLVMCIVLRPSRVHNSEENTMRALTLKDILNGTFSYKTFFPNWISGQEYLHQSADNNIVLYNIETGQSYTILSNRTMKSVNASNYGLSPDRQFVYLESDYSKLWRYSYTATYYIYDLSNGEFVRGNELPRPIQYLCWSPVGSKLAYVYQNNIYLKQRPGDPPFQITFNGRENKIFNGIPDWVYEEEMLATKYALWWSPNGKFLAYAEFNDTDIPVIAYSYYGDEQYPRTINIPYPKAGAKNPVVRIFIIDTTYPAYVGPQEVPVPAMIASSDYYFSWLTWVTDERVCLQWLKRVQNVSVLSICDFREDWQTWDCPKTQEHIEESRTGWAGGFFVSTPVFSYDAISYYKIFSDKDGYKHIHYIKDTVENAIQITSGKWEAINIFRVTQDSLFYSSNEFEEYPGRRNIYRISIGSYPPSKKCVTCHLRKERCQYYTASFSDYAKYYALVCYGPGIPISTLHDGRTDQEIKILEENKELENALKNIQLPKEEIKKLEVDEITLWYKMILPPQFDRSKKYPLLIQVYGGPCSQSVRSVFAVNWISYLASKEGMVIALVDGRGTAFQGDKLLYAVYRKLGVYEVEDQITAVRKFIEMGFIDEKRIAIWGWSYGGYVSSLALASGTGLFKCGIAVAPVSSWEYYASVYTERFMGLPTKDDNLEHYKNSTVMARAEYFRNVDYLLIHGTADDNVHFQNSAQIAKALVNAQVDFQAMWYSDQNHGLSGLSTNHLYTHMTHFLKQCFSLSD
# method.notes: In vitro binding/uptake on FAP-transfected HT-1080-FAP cells
# Type: cell-based
# settings: HT1080-FAP cells, 10 min incubation
Listing of recorded uptake 10 min by entry.
Phrase the answer as number then unit, nothing more needed.

line_notation=N#C[C@@H]1CC(F)(F)CN1C(=O)CNC(=O)c1ccnc2ccc(OCCCN3CCN(C(=O)[C@H](CC(C(=O)O)C(=O)O)NC(=O)CN4CCN(CC(=O)O)CCN(CC(=O)O)CC4)CC3)cc12 experimental_result="34.9 ± 0.26 %AD/10^6 cells"
line_notation=CN(CCCN1CCN(C(=O)CN2CCN(CC(=O)O)CCN(CC(=O)O)CC2)CC1)c1ccc2nccc(C(=O)NCC(=O)N3CC(F)(F)C[C@H]3C#N)c2c1 experimental_result="32.0 ± 0.28 %AD/10^6 cells"
line_notation=C[N+](C)(C)c1ccc(C(=O)N2CCN(CCCOc3ccc4nccc(C(=O)NCC(=O)N5CC(F)(F)C[C@H]5C#N)c4c3)CC2)cn1 experimental_result="22.7 ± 0.24 %AD/10^6 cells"
line_notation=CN(CCCN1CCN(C(=O)c2ccc([N+](C)(C)C)nc2)CC1)c1ccc2nccc(C(=O)NCC(=O)N3CC(F)(F)C[C@H]3C#N)c2c1 experimental_result="13.9 ± 0.60 %AD/10^6 cells"
line_notation=N#C[C@@H]1CCCN1C(=O)CNC(=O)c1ccnc2ccc(OCCCN3CCN(C(=O)CN4CCN(CC(=O)O)CCN(CC(=O)O)CC4)CC3)cc12 experimental_result="27.2 ± 0.88 %AD/10^6 cells"

Q) // query uptake 10 min value for entry `N#C[C@@H]1CC(F)(F)CN1C(=O)CNC(=O)c1ccnc2ccc(OCCCN3CCN(C(=O)CN4CCN(CC(=O)O)CCN(CC(=O)O)CC4)CC3)cc12`
A) 40.0 ± 1.73 %AD/10^6 cells
